- Tested on: UISO
- protocol.notes: qHTS assay to identify novel small-molecules to repurpose for Merkel cell carcinoma treatment (AID 1296009); also: nearly all actives have a fitted effect of over 60% in size
- assay.context: MCC and control cell lines, CellTiter-Glo viability, 72 h; series mostly up to 46 µM
Records with an inconclusive call do not appear. Active and inactive are the calls of the source. Calls follow the shape of the dose curve; as a rule, active = well fitted inhibition curve with a large enough effect; inconclusive = small, poorly fitted or top-dose-only effect; inactive = flat fitted curve, though single readings scatter.
Give your call using only these classes: 1 = active, -1 = inactive

Worked cases, answers included:
                                   molecule  system_name  cat
0  CCN(CC)CCCC(C)Nc1nc(C)cc(Nc2ccc3nc(C)cc(N)c3c2)n1 (configuration not stated)         UISO   -1
1               c1ccc([C@H]2CN3CCSC3=N2)cc1         UISO   -1
2     C[C@]1(c2nc3c(C(N)=O)cccc3[nH]2)CCCN1         UISO   -1
3  O=C(O)[C@@H](c1ccc(OCc2ccc3ccccc3n2)cc1)C1CCCC1         UISO   -1
4                           CCCC(CCC)C(=O)O         UISO   -1

**Query** What did this assay record as the result for `CNC[C@H](O)c1cccc(O)c1` ?
**Result** -1

**Query** Which outcome was assigned to `COc1ccc(-c2c(-c3ccc(O)cc3O)n[nH]c2C)cc1` in this test?
**Result** -1

**Query** // param item: `COc1cc(F)c(F)c(Nc2ccc(I)cc2F)c1NS(=O)(=O)C1(C[C@H](O)CO)CC1` ; yields the recorded call
**Result** -1

**Query** What is the recorded call for this molecule in the test? `Nc1nc2ccc(OC(F)(F)F)cc2s1`
**Result** -1

**Query** GET /call?item= `CCCc1nc2c(C)cc(-c3nc4ccccc4n3C)cc2n1Cc1ccc(-c2ccccc2C(=O)O)cc1` returns the recorded outcome of this test.
**Result** -1

**Query** Please state the recorded outcome for this molecule: `Cc1c(CCOc2ccc(C(=O)O)cc2)c2cc(Cl)ccc2n1C(c1ccccc1)c1ccccc1`
**Result** -1

**Query** Dear colleague, could you share the recorded outcome for `Nc1ccc(S(=O)(=O)Nc2ccnn2-c2ccccc2)cc1` when you have a moment?
**Result** -1

**Query** Any idea what this test logged for `CC[C@H](Nc1ncnc2nc[nH]c12)c1nc2cccc(F)c2c(=O)n1-c1ccccc1` ?
**Result** -1

**Query** What outcome does the record of this test show for `CC[C@@H](C)[C@H](NC(=O)[C@H](CC1CCCCC1)NC(=O)c1ccno1)C(=O)N1CCC2(CCc3ccccc32)CC1` ?
**Result** -1

**Query** Tell me the assay call for `CCOc1cc(C=C2C(=O)N(c3ccccc3)N=C2C)cc(Cl)c1OCC(=O)OC` please.
**Result** -1

**Query** Hey, what did the test say about O=C(O)COCCN1CCN(C(c2ccccc2)c2ccc(Cl)cc2)CC1 (configuration not stated) ?
**Result** -1

**Query** Which result was noted for this molecule in the test: `CCOC(=O)N1CCC(=C2c3ccc(Cl)cc3CCc3cccnc32)CC1`
**Result** -1

**Query** What was the test verdict on `CC(C)(C)OC(=O)CN(Cc1ccc(Cl)cc1)Cc1ccc([N+](=O)[O-])s1` ?
**Result** -1

**Query** Write down the call the test reported for this molecule. Item: CC(C[N+](C)(C)C)OC(N)=O (configuration not stated)
**Result** -1

**Query** For this molecule, state the assay outcome: `Cc1cc2c(C(C)C)c(O)c(O)c(C=O)c2c(O)c1-c1c(C)cc2c(C(C)C)c(O)c(O)c(C=O)c2c1O`
**Result** 1

**Query** State the result this test recorded for `COc1ccc(-c2oc3cc(OC)ccc3c2C(=O)c2ccc(C#N)cc2)cc1` .
**Result** -1

**Query** Answer briefly: the call reported for `CC1(C)SCCN(S(=O)(=O)c2ccc(OCC#CCO)cc2)[C@@H]1C(=O)NO` in this assay.
**Result** -1

###

- protocol.notes: Confirmatory screen NINDS Rhodamine qHTS for Zika virus inhibitors (AID 1347161); also: nearly all actives have a fitted effect of over 60% in size
- assay.context: purified enzyme assay, Rhodamine110 substrate fluorescence, 15 min; series mostly up to 114 µM
Inconclusive results are not listed. Calls of active or inactive are those of the source. Calls come from the whole dose curve; as a rule, active = well fitted inhibition curve with a large enough effect; inconclusive = small, poorly fitted or top-dose-only effect; inactive = no such curve, though single readings can be large or run the other way.
Answer with one of the outcomes given here: T for active, F for inactive

// known answers, use as guide
In [3]: df
Out[3]:
                                  structure  cat
0  Cc1cc2c(C(C)C)c(O)c(O)c(C=O)c2c(O)c1-c1c(C)cc2c(C(C)C)c(O)c(O)c(C=O)c2c1O    T
1  O=c1n(CCCN2CCN(c3cccc(Cl)c3)CC2)nc2ccccn12    F
2            Cc1[nH]c(=O)c(C#N)cc1-c1ccncc1    F

**Query** What did the test return for `COc1cc2c(cc1OC)CN(CCc1ccc(NC(=O)c3cccc4c(=O)c5cccc(OC)c5[nH]c34)cc1)CC2` ?
**Result** T

###

- System: Tov-21-G
- protocol.notes: Primary qHTS to identify gynecologic anti-cancer compounds using libraries of approved drugs and bioactive compounds (AID 1345084); also: nearly all actives have a fitted effect of over 55% in size
- assay.context: Gynecologic cancer cell panel viability, ATPlite luminescence, 48 h; series mostly up to 57.5 µM
Records with an inconclusive call do not appear. The source made the active and inactive calls. The call rests on the fitted dose curve; in most records, active means well fitted cell-killing curve with a large enough effect; inconclusive means small, poorly fitted or top-dose-only effect, or effect the other way; inactive means flat fitted curve, though single readings scatter.
Give one outcome, nothing more. List: true (active), false (inactive)

Examples from the recorded data:
In [3]: df
Out[3]:
                                   compound    cat
0        Cc1ccc(N(CC2=NCCN2)c2cccc(O)c2)cc1  false
1  COc1cc(Nc2ncc3c(n2)-c2ccc(Cl)cc2C(c2c(F)cccc2OC)=NC3)ccc1C(=O)O  false
2  Cc1cnc(Nc2ccc(OCCN3CCCC3)cc2)nc1Nc1cccc(S(=O)(=O)NC(C)(C)C)c1   true
3  CCOc1ccn(-c2ccc(F)cc2)c(=O)c1C(=O)Nc1ccc(Oc2ccnc(N)c2Cl)c(F)c1  false
4              Nc1nc2c(ncn2COCCO)c(=O)[nH]1  false
5  COc1cc2c(cc1OC)CN(CCc1ccc(NC(=O)c3cccc4c(=O)c5cccc(OC)c5[nH]c34)cc1)CC2  false
6  O=C(c1cc(Cc2n[nH]c(=O)c3ccccc23)ccc1F)N1CCN(C(=O)C2CC2)CC1  false
7  Oc1ccc(C2CNCCc3c2cc(O)c(O)c3Cl)cc1 (stereo unspecified)  false
8  C[C@]12CCC(=O)C=C1CC[C@@H]1[C@@H]2[C@@H](O)C[C@@]2(C)[C@H]1CC[C@]2(O)C(=O)CO  false
9  O=C(Nc1ccc(F)c(C(F)(F)F)c1)Nc1nnc(-c2ccncc2)s1  false

**Query** # fetch the recorded call for CCc1ccc(CCOc2ccc(CC3SC(=O)NC3=O)cc2)nc1 (stereo unspecified) here
**Result** false

###

- protocol.notes: Quantitative High-Throughput drug screen in 47 multiple myeloma cell lines against the NCATS MIPE library collection: KMS28PE_JCRB cell viability assay (AID 1918983); also: nearly all actives have a fitted effect of over 35% in size; also: potency is read from the fitted curve at half-maximal effect
- assay.context: KMS28PE multiple myeloma viability, CellTiter-Glo ATP, 48 h; series mostly up to 45.8 µM
Records with an inconclusive call do not appear. The source made the active and inactive calls. Calls come from the whole dose curve; as a rule, active = well fitted cell-killing curve with a large enough effect; inconclusive = small, poorly fitted or top-dose-only effect, or effect the other way; inactive = no such curve, though single readings can be large or run the other way.
property.measured: Potency

Known Potency results, listed for orientation:
>>> print(df.to_string())
                                  structure   measured_result
0  Cc1cc2c(C(C)C)c(O)c(O)c(C=O)c2c(O)c1-c1c(C)cc2c(C(C)C)c(O)c(O)c(C=O)c2c1O  18.7 µM (active)
1  Cc1cnc(NC(=O)C2=C(O)c3ccccc3S(=O)(=O)N2C)s1          inactive
2        Cc1ccc(N(CC2=NCCN2)c2cccc(O)c2)cc1  5.26 µM (active)
3              Nc1nc2c(ncn2COCCO)c(=O)[nH]1          inactive

**Query** Requested field: Potency. Item: `CCCn1c(=O)c2[nH]c(C34CC5CC3C[C@@H](C5)C4)nc2n(CCC)c1=O`
**Result** 20.9 µM (active)

**Query** What value of measured Potency is listed for `CS(=O)(=O)Oc1ccc2c(NC(N)=O)c(C(=O)c3ccc(Cl)cc3Cl)oc2c1` ?
**Result** inactive

**Query** // query Potency value for entry `CNC[C@H](O)c1cccc(O)c1`
**Result** inactive

**Query** Report Potency for `C[C@H](NC(=O)Cc1cc(F)cc(F)c1)C(=O)N[C@@H]1C(=O)N(C)c2ccccc2-c2ccccc21` please.
**Result** inactive

**Query** What does the data say about its Potency? Entry: `Cn1c(=O)c(F)c(Nc2ccc(I)cc2F)c2c(=O)n(C[C@@H](O)CO)cnc21`
**Result** inactive

**Query** Return reported Potency; argument: `CC(=O)Oc1ccccc1C(=O)O`
**Result** inactive
